Please provide measured self-cleavage kobs at 40 uM GlcN6P for the entries that follow.
B1: glmS ribozyme (parent)
chain: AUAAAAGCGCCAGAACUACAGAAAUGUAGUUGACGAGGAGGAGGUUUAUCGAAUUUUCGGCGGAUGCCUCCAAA

Variants of: B1
Assay: self-cleavage kobs at 40 uM GlcN6P; higher = faster cleavage; RNA array
Settings: with glucosamine-6-phosphate
This sample holds only a part of the variants without activity.

{"columns": ["mut", "result"],
 "data": [
  ["A15G U69G", "3.29e-05 s⁻¹"],
  ["C16G G62U", "< 1e-05 s⁻¹"],
  ["C10U G38A G66U", "< 1e-05 s⁻¹"],
  ["G44C C61U", "< 1e-05 s⁻¹"],
  ["U46G", "0.000228 s⁻¹"],
  ["C16G A36C", "< 1e-05 s⁻¹"],
  ["U46C", "0.000108 s⁻¹"],
  ["A14U C50G C58G", "0.000124 s⁻¹"]
]}

Take each entry in turn and give its self-cleavage kobs at 40 uM GlcN6P.
1. C34U U65A
2. A48U A64G
3. G29U C71A
4. C16G G35U
5. G13A A42G A48U
6. A6G C50G A64U
7. A15U U55G C61U
8. G9A C71G

1. < 1e-05 s⁻¹
2. 2.41e-05 s⁻¹
3. 5.78e-05 s⁻¹
4. < 1e-05 s⁻¹
5. < 1e-05 s⁻¹
6. 7.9e-05 s⁻¹
7. < 1e-05 s⁻¹
8. < 1e-05 s⁻¹
